These measurements were taken from patent US20210155689A1.

# SYSTEM_TESTED: T1, human LAG-3 on cells (HEK293-hLAG-3 stable cell line) (human, UniProt P18627 23-525)
# T1 sequence: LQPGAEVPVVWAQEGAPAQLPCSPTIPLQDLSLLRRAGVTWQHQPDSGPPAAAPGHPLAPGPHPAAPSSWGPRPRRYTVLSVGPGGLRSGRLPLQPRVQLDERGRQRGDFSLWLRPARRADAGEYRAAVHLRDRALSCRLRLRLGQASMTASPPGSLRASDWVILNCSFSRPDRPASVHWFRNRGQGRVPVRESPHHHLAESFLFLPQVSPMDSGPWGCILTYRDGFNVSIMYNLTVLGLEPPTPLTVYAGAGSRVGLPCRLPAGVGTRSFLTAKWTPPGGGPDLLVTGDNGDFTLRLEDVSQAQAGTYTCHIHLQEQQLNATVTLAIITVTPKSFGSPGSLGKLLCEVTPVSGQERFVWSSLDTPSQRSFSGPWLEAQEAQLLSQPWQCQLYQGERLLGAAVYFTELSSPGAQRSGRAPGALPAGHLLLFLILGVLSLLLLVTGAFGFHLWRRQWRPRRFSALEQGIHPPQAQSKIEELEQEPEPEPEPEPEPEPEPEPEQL
# ASSAY_DETAILS: cell-based or functional assay
ATTRIBUTE_MEASURED: IL-2 production, SEB-dependent PBMC stimulation test, 10 ug/ml, N = 2 (pg/mL)
Just the number in pg/mL, nothing appended.

Value lookup for IL-2 production, SEB-dependent PBMC stimulation test, 10 ug/ml, N = 2; key = 409D4E10 mouse-human chimeric antibody (antibody, V domains shown, also called mAb112-409D4E10) VH: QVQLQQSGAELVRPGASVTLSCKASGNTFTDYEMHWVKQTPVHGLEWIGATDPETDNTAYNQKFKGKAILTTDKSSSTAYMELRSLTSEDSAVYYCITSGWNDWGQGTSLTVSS VL: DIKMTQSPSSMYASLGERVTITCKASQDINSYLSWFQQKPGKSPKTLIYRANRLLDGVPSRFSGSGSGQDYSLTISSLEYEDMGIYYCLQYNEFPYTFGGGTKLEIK
2100
